Below, each entry is listed with its recorded kon.
# Measurement target: T1, RatNectin4-His (rat, UniProt D3ZET1 31-348)
# T1 construct: Immobilized on the SPR chip; not shown: His tag
# T1 sequence: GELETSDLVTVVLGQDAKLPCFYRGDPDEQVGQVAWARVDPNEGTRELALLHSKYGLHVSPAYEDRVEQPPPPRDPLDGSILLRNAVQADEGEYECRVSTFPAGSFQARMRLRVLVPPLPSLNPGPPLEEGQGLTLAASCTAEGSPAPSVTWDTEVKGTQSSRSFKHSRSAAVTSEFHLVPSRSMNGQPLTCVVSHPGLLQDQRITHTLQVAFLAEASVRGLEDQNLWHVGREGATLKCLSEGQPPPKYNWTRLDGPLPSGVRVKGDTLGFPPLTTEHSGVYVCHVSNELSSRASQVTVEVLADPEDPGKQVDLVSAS
# Assay comment: SPR, RatNectin4-His immobilized, pH 7.4
Express it in M⁻¹ s⁻¹; write the number only.

BAP-143-07-03-12 (antibody, V domains shown, Used as a conjugate with a linker payload (CAB ADC)) VH: EVQLVESGGGLVQPGGSLRLSCAASGFTFSSYNMNWVRQAPGKGLEWVSYISSSSSTIYYADSVKGRFTISRDNAKNSLSLQMNSLRDEDTAVYYCARAYYYGMDKWGQGTTVTVSS VL: DIQMTQSPSSVSASVGDRVTITCRASQGISGWEAWYQQKPGKAPKFLIYAASTLQSGVPSRFSGSGSGTDFTLTISSLQPEDFATYYCQQANSFPPTFGGGTKVEIK; 557000
BAP-143-06-33-16 (antibody, V domains shown, Used as a conjugate with a linker payload (CAB ADC)) VH: EVQLVQSGAEVKKPGATVKISCKVSGFTFSSYNMNWIRQSPSRGLEWLGYISSSSSTIYYADSVKGRFTISRDNSKNTLYLQMNSLRAEDTAVYYCARAYYYGDDVWGQGTLVTVSS VL: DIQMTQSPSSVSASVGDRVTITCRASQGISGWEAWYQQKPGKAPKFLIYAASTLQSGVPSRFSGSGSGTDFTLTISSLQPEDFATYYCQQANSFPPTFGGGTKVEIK; 135000
BAP-143-00-01 (antibody, V domains shown, Used as a conjugate with a linker payload (CAB ADC)) VH: EVQLVESGGGLVQPGGSLRLSCAASGFTFSSYNMNWVRQAPGKGLEWVSYISSSSSTIYYADSVKGRFTISRDNAKNSLSLQMNSLRDEDTAVYYCARAYYYGMDVWGQGTTVTVSS VL: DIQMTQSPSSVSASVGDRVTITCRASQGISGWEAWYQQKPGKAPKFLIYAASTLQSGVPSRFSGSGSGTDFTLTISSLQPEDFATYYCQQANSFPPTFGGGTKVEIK; 361000

// next item, kon requested
query: Name the reported kon value associated with the binder BAP-143-06-24-16 (antibody, V domains shown, Used as a conjugate with a linker payload (CAB ADC)) VH: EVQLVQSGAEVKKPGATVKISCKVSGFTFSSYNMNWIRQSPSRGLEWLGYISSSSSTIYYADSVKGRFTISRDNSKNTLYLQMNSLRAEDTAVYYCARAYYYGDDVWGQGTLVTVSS VL: DIQMTQSPSSVSASVGDRVTITCHASQGISGWLAWYQQKPGKAPKFLIYAASTLQSGVPSRFSGSGSGTDFTLTISSLQPEDFATYYCQQANSFPPTFGGGTKVEIK
result: 1.04e+06
